For each entry below, report its 8OG:A repair function score value.
B1: library; numbered along this chain (parent)
chain: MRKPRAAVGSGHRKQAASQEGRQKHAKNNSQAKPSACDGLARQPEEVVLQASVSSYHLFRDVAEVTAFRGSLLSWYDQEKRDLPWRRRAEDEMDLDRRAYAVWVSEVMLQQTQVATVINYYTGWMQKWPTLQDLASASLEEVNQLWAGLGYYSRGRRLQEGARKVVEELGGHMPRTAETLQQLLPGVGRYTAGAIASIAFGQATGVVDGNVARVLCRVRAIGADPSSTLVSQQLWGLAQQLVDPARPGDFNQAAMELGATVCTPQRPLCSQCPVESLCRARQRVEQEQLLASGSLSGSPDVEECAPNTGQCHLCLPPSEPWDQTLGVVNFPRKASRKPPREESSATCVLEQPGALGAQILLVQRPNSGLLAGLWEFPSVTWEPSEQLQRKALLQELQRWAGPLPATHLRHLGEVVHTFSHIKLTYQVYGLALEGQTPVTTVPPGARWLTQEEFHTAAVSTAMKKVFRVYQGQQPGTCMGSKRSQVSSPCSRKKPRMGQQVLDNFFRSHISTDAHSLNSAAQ

variants of: B1; assay: 8OG:A repair function score (normalized; synonymous = 0, nonsense = -1) (normalized log-likelihood score); higher = more repair activity (WT-like); details: with 8OG:A DNA repair reporter (GFP) in HEK-293 MUTYH KO cells;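 further: cells sorted at 72 h after reporter transfection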
Just the number, please.

Quick check: 8OG:A repair function score of K164I ?
0.0586

How about S367A ?
-0.145

How about T204V ?
0.0534

How about D502E ?
-0.0204

How about V427L ?
-0.345

How about G479W ?
-0.0628

How about A223W ?
-0.73

How about C269F ?
-1.16

How about L361F ?
-0.49

How about D91I ?
0.00656

How about M496E ?
0.00855

How about G236T ?
-0.0456

How about S270G ?
-0.0285

How about A99E ?
-1.34

How about Y76K ?
-1.41

How about R495K ?
0.00711

How about C489M ?
0.00595

How about Y151A ?
-0.816

How about V104G ?
-0.976

How about A199S ?
-0.171

How about P306D ?
-0.0656

How about D91C ?
-0.0114

How about V214E ?
-0.927

How about Q50N ?
0.00105

How about S490K ?
0.00805

How about G471E ?
-0.0561

How about A220V ?
-0.57

How about Q43D ?
0.0131

How about E385R ?
-0.0734

How about N329G ?
-0.365

How about A89F ?
-0.0315

How about A461R ?
-0.632

How about K481W ?
-0.0431

How about T436G ?
-0.0926

How about C477D ?
0.016

How about E46F ?
0.0911

How about R175P ?
-0.229

How about A259R ?
-0.0545

How about T116A ?
-0.122

How about D91L ?
0.00629

How about Q484C ?
-0.0119

How about C272I ?
-1.3

How about L501Y ?
-0.0132

How about T228F ?
-0.051

How about S231E ?
0.0501

How about V218G ?
-0.74

How about G497M ?
-0.0577

How about G412R ?
-0.598

How about R217I ?
-1.03

How about M173V ?
-0.0935

How about H407K ?
-0.104

How about A162K ?
-1.03

How about Q472A ?
0.0214

How about P402Y ?
-0.122

How about N503A ?
0.0125

How about D96K ?
-0.758

How about Q397H ?
-0.717

How about D94V ?
-0.128

How about R157C ?
-0.297

How about P377M ?
-1.07

How about V206T ?
-0.338

How about C311M ?
-0.621

How about L387V ?
-0.0288

How about Q271T ?
-0.00163

How about S136I ?
-0.0848

How about R467C ?
-0.137

How about T66Y ?
-0.00942

How about F504W ?
-0.0289

How about V218Q ?
-0.472

How about V327L ?
-0.388

How about T66M ?
-0.0066

How about L241V ?
-0.358

How about V107A ?
0.0286

How about L215K ?
-1.02

How about R446I ?
-0.193

How about W75T ?
-3.63

How about H172R ?
-0.0155

How about A245G ?
0.0269

How about E382L ?
0.0169

How about R467M ?
-0.057

How about H420G ?
-0.0793

How about L109H ?
-0.619

How about L432G ?
-0.302
